# Study target: Gastrin/cholecystokinin type B receptor (Homo sapiens)
# Sequence (P32239 whole entry): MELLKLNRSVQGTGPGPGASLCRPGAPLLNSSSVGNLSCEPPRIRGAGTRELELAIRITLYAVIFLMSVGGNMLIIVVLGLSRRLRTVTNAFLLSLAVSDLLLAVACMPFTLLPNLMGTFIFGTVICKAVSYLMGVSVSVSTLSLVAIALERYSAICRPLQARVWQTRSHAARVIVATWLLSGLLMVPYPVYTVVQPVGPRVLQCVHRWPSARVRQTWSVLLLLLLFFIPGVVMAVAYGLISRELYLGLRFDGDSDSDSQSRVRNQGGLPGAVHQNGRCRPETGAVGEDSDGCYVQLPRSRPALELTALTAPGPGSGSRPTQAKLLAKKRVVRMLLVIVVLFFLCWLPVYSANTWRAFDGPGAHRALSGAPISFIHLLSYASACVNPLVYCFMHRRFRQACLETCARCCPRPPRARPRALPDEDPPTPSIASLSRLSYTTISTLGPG
# Assay comment: Agonist activity at human CCK2R expressed in human 1321N1 cells assessed as IP1 accumulation after 1 hr by HTRF assay
Numbered stars: 1 amine (or outer) side, 2 acyl side, 3 side chain; on linkers, the order of the positions; unused ones are H or OH. Square brackets hold non-standard residues; d marks the D form. Peptide text beside a SMILES is read from it. * marks the point of attachment. sY = N[C@@H](Cc1ccc(OS(=O)(=O)O)cc1)C(=O)O; C18 diacid = O=C(O)CCCCCCCCCCCCCCCCC(=O)*; γGlu = O=C(O)[C@H](CCC(=O)[*:2])N[*:1]; 1Nal = N[C@@H](Cc1cccc2ccccc12)C(=O)O; NMeD = CN[C@@H](CC(=O)O)C(=O)O; dNMeD = CN[C@H](CC(=O)O)C(=O)O; Nle = CCCC[C@H](N)C(=O)O; X1 = O=C(Cc1ccc(O)cc1)*; AEEA = NCCOCCOCC(=O)O
Measured parameter: log10 EC50 (log10 of the value in nM)
Note the log scale: values are log10 of EC50 expressed in nM.

CCCC[C@H](NC(=O)[C@H](Cc1ccc(OS(=O)(=O)O)cc1)NC(=O)[C@H](CC(=O)O)NC(=O)COCCOCCNC(=O)COCCOCCNC(=O)CC[C@H](NC(=O)CCCCCCCCCCCCCCCCC(=O)O)C(=O)O)C(=O)NCC(=O)N[C@@H](Cc1c[nH]c2ccccc12)C(=O)N[C@@H](CCCC)C(=O)N[C@@H](CC(=O)O)C(=O)N[C@@H](Cc1cccc2ccccc12)C(N)=O ({C18 diacid-γGlu-AEEA-AEEA}-D[sY][Nle]GW[Nle]D[1Nal]-NH2); -0.39
CCCC[C@H](NC(=O)[C@H](Cc1c[nH]c2ccccc12)NC(=O)CNC(=O)[C@H](CC(C)C)NC(=O)[C@H](Cc1ccc(OS(=O)(=O)O)cc1)NC(=O)[C@H](CC(=O)O)NC(=O)COCCOCCNC(=O)COCCOCCNC(=O)CC[C@H](NC(=O)CCCCCCCCCCCCCCCCC(=O)O)C(=O)O)C(=O)N(C)[C@@H](CC(=O)O)C(=O)N[C@@H](Cc1ccccc1)C(N)=O; 0.19
CCCC[C@H](NC(=O)[C@H](Cc1c[nH]c2ccccc12)NC(=O)CNC(=O)[C@H](CC(C)C)NC(=O)[C@H](Cc1ccc(OS(=O)(=O)O)cc1)NC(=O)[C@H](CC(=O)O)NC(=O)COCCOCCNC(=O)COCCOCCNC(=O)CC[C@H](NC(=O)CCCCCCCCCCCCCCCCC(=O)O)C(=O)O)C(=O)N(C)[C@H](CC(=O)O)C(=O)N[C@@H](Cc1ccccc1)C(N)=O; 2.12
CCCC[C@H](NC(=O)Cc1ccc(O)cc1)C(=O)NCC(=O)N[C@@H](Cc1c[nH]c2ccccc12)C(=O)N[C@@H](CCCC)C(=O)N(C)[C@@H](CC(=O)O)C(=O)N[C@@H](Cc1ccccc1)C(N)=O (X1-[Nle]GW[Nle][NMeD]F-NH2); 2.29
CCCC[C@H](NC(=O)[C@H](Cc1ccc(OS(=O)(=O)O)cc1)NC(=O)[C@H](CC(=O)O)NC(=O)COCCOCCNC(=O)COCCOCCNC(=O)CC[C@H](NC(=O)CCCCCCCCCCCCCCCCC(=O)O)C(=O)O)C(=O)NCC(=O)N[C@@H](Cc1c[nH]c2ccccc12)C(=O)N[C@@H](CCCC)C(=O)N[C@@H](CC(N)=O)C(=O)N[C@@H](Cc1ccccc1)C(N)=O ({C18 diacid-γGlu-AEEA-AEEA}-D[sY][Nle]GW[Nle]NF-NH2); 0.76

log10 EC50 lookup needed for CCCC[C@H](NC(=O)[C@H](Cc1c[nH]c2ccccc12)NC(=O)[C@H](CCC(=O)O)NC(=O)[C@H](CCCC)NC(=O)[C@H](Cc1ccc(OS(=O)(=O)O)cc1)NC(=O)[C@H](CC(=O)O)NC(=O)COCCOCCNC(=O)COCCOCCNC(=O)CC[C@H](NC(=O)CCCCCCCCCCCCCCCCC(=O)O)C(=O)O)C(=O)N[C@@H](CC(=O)O)C(=O)N[C@@H](Cc1ccccc1)C(N)=O ({C18 diacid-γGlu-AEEA-AEEA}-D[sY][Nle]EW[Nle]DF-NH2) , thanks.
-0.36

log10 EC50 lookup needed for CCCC[C@H](NC(=O)[C@H](Cc1ccc(OS(=O)(=O)O)cc1)NC(=O)[C@H](CC(=O)O)NC(=O)COCCOCCNC(=O)COCCOCCNC(=O)CC[C@H](NC(=O)CCCCCCCCCCCCCCCCC(=O)O)C(=O)O)C(=O)NCC(=O)N[C@@H](Cc1c[nH]c2ccccc12)C(=O)N[C@@H](CCCC)C(=O)N(C)[C@@H](CC(=O)O)C(=O)N[C@@H](Cc1cccc2ccccc12)C(N)=O ({C18 diacid-γGlu-AEEA-AEEA}-D[sY][Nle]GW[Nle][NMeD][1Nal]-NH2) , thanks.
0.27

log10 EC50 lookup needed for CCCC[C@H](NC(=O)[C@H](Cc1ccc(OS(=O)(=O)O)cc1)NC(=O)[C@H](CC(=O)O)NC(=O)COCCOCCNC(=O)COCCOCCNC(=O)CC[C@H](NC(=O)CCCCCCCCCCCCCCCCC(=O)O)C(=O)O)C(=O)NCC(=O)N[C@@H](Cc1c[nH]c2ccccc12)C(=O)N[C@@H](CCCC)C(=O)N(C)[C@H](CC(=O)O)C(=O)N[C@@H](Cc1cccc2ccccc12)C(N)=O ({C18 diacid-γGlu-AEEA-AEEA}-D[sY][Nle]GW[Nle][dNMeD][1Nal]-NH2) , thanks.
1.95

log10 EC50 lookup needed for CCCC[C@H](NC(=O)[C@H](Cc1c[nH]c2ccccc12)NC(=O)[C@@H]1CCCN1C(=O)[C@H](CCCC)NC(=O)[C@H](Cc1ccc(OS(=O)(=O)O)cc1)NC(=O)[C@H](CC(=O)O)NC(=O)COCCOCCNC(=O)COCCOCCNC(=O)CC[C@H](NC(=O)CCCCCCCCCCCCCCCCC(=O)O)C(=O)O)C(=O)N[C@@H](CC(=O)O)C(=O)N[C@@H](Cc1ccccc1)C(N)=O ({C18 diacid-γGlu-AEEA-AEEA}-D[sY][Nle]PW[Nle]DF-NH2) , thanks.
-0.42
